Where do the numbers come from? From PubChem BioAssay (NCI).

# Tested on: TK-10 renal
# Procedure Summary: NCI tumour cell line growth inhibition, 48 h
Readout: TGI

[Q] Query for TK-10 renal: what TGI does the record show for CC(NC1=NCCO1)c1cccc([N+](=O)[O-])c1 (stereo not drawn) ?
[A] > 100 µM

[Q] Query for TK-10 renal: what TGI does the record show for CNC(=O)c1c(NC(=O)c2cccc(C(F)(F)F)c2)sc2c1CCC(=O)C2 ?
[A] > 40.8 µM

[Q] Query for TK-10 renal: what TGI does the record show for O=C(Nc1ncc(Cc2ccccc2)s1)c1ccc2c(c1)OCCCO2 ?
[A] > 100 µM

* * *

# System: SF-539 CNS
# Procedure Summary: NCI tumour cell line growth inhibition, 48 h
Readout: TGI

[Q] So what's the measured TGI for this one? CC1=C(C)CC2(SC1)C(=O)c1ccccc1C2=O
[A] > 100 µM

[Q] So what's the measured TGI for this one? Cc1cc(N=Cc2c(CO)cnc(C)c2O)c(N=Cc2c(CO)cnc(C)c2O)cc1C.[Zn]
[A] > 100 µM

[Q] So what's the measured TGI for this one? CC(C)[C@H]1NC(=O)[C@H]2N=C(O[C@@H]2C)[C@@H]2CCCN2C(=O)[C@H](Cc2ccccc2)NC(=O)[C@@H]2CSC(=N2)[C@@H](Cc2ccccc2)NC(=O)[C@@H]2CSC1=N2
[A] > 100 µM

[Q] So what's the measured TGI for this one? Nc1c(C(=O)c2cccc(-c3ccc[n+]([O-])c3)c2)cnn1-c1ccc(F)cc1F
[A] > 25 µM

[Q] So what's the measured TGI for this one? O=c1[nH]c2cc3cccnc3c(Cl)c2nc1C(F)(F)F
[A] > 100 µM

[Q] So what's the measured TGI for this one? O=C(/C=C/c1ccc(-c2ccccc2)cc1)NCc1ccc(C(=O)NCCc2c[nH]c3ccccc23)cc1
[A] > 100 µM

[Q] So what's the measured TGI for this one? O=C1CSC2=NCC3(NN12)c1ccccc1-c1ccccc13
[A] > 10 µM

[Q] So what's the measured TGI for this one? Nc1ccccc1NC(=O)CCCCCCC(=O)Nc1ccc2c(c1)/C(=C/c1ccc[nH]1)C(=O)N2
[A] > 100 µM

[Q] So what's the measured TGI for this one? COc1ccc(-c2nc(-c3cc4ccccc4oc3=O)cs2)cc1
[A] > 100 µM

[Q] So what's the measured TGI for this one? O=S(=O)([O-])[O-].[Cl-].[NH2-].[NH2-].[NH2-].[NH2-].[Ru+3].c1ccc(-c2cccnc2)cc1
[A] > 100 µM
